Just for reference, the supplement of paper PMC6755084 is where these values come from.

Give measured fraction ligated for each item. Keep answers brief.
B1: F1*; the commonest letter at each place (parent)
chain: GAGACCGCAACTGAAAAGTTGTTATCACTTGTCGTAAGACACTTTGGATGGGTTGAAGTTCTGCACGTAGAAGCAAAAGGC

variants of: B1; assay: fraction ligated after 30 min (ligated reads / total reads); higher = more ligase activity; settings: with F1*sub RNA substrate (template-directed ligation), 42 °C
Give bare numbers.

variantSpec: G55C A56G A57T
quantityKind: fraction ligated
numericReadout: 0.0232
--
variantSpec: C26A A27C
quantityKind: fraction ligated
numericReadout: 0.842
--
variantSpec: A24T T30C
quantityKind: fraction ligated
numericReadout: 0.297
--
variantSpec: C33T A56C
quantityKind: fraction ligated
numericReadout: 0.795
--
variantSpec: A27C T30A
quantityKind: fraction ligated
numericReadout: 0.783
--
variantSpec: G31T G50A
quantityKind: fraction ligated
numericReadout: 0.0382
--
variantSpec: T25C T45A
quantityKind: fraction ligated
numericReadout: 0.295
--
variantSpec: A27T G46C
quantityKind: fraction ligated
numericReadout: 0.796
--
variantSpec: G31T G47A
quantityKind: fraction ligated
numericReadout: 0.246
--
variantSpec: T32G
quantityKind: fraction ligated
numericReadout: 0.828

For each of the items listed, what is its fraction ligated?
1. A24T T45C
2. G31T T32C
3. A27C C40G
4. A24G A37T

OUTPUT:
[0.0212, 0.816, 0.783, 0.764]

Batch request: fraction ligated for each of the following variants.
1. T23A A39T
2. T35G A41G

OUTPUT:
1. 0.794
2. 0.816

Below are 4 variants. Give each one its fraction ligated.
1. C26G T35C
2. C42A A48G
3. T25C G34A
4. C26A T35C

OUTPUT:
1. 0.772
2. 0.785
3. 0.799
4. 0.807

For each of the variants below, state fraction ligated.
1. T44C
2. T49A G55A

OUTPUT:
1: 0.837; 2: 0.62
